- Test system: GM16513 cells
- Format: cell-based
- condition.set: 10 µM, 3 days, PI positive cells (dead cells)
quantity: % PI+ cells

Illustrative cases are given below, each with its answer.
O=C(NO)c1ccc(Cn2c(=O)n(CCc3ccccc3)c(=O)c3ccccc32)cc1 [J22352]    3%
O=C(CCCCCN1C(=O)c2cccc3cccc(c23)C1=O)NO [Scriptaid]    8%
CCCCNNC(=O)c1ccc(Br)cc1 [UF010]    1%
COC(=O)c1ccc(OC(=O)CCCCCCC(=O)NO)cc1 [Remetinostat]    1%
O=C(CCCCCCC(=O)Nc1cccnc1)NO [Pyroxamide]    4%
Cc1cc(Cl)ccc1OCCCC(=O)NO [Droxinostat]    1%
CC(C)(C)OC(=O)Nc1ccc(-c2cc(C(=O)NCCCCCCC(=O)NO)no2)cc1 [CAY10603]    31%
O=C(CCc1ccc(CN[C@H](C(=O)OC2CCCC2)C2CCCCC2)cn1)NO [HDAC-IN-3]    26%

Notebook: pull reported % PI+ cells for GM16513 cells, entry COc1ccc(Cn2ccc3ccc(C(=O)NO)cc32)cc1 [PCI-34051]
2%

Notebook: pull reported % PI+ cells for GM16513 cells, entry O=C(CCCCCCC(=O)NO)NO [Suberoyl bis-hydroxamic acid]
2%

Notebook: pull reported % PI+ cells for GM16513 cells, entry CCOC(=O)c1cnc(NC2(c3ccccc3)CC2)nc1 [CG347B]
1%

Notebook: pull reported % PI+ cells for GM16513 cells, entry Nc1ccccc1NC(=O)c1ccc(Cn2cc(-c3ccc(C(=O)NCc4cccnc4)cc3)nn2)cc1 [Nampt-IN-3]
3%
